Known inhibition of a selection of compounds
Tgt: Tyrosine-protein phosphatase non-receptor type 22 (Homo sapiens)
Method description: PTPN22 lymphoid phosphatase activity blockers – biochemical, fluorescence intensity, uHTS (AID 1779);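 further: plate controls were vehicle with enzyme for no effect and no enzyme for full effect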
Stated conditions: recombinant LYP phosphatase, at 11.5 µM, active compounds read high
Among all 290,000 compounds or so, about 160 (0.055%) were called active. The list comes from a sample in which actives are over-represented; it also holds close analogues and randomly drawn compounds.

| Compound | inhibition (%) |
| --- | --- |
| Cc1ccc2c(c1)N(C(=O)CCC(=O)NCc1cccc(Br)c1)CC(C)O2 (configuration not stated) | 90.4 |
| c1ccn(-c2ccc(-c3ccn[nH]3)cc2)c1 | -5.9 |
| Cc1ccc2[nH]c(=O)cc(C(=O)OCC(=O)c3ccc(F)cc3)c2c1 | 1.2 |
| N#CC(C(=O)NC1CCCCC1)=C1CCCCCC1 | 2.1 |
| COCCn1nnnc1C(c1cccc(C(F)(F)F)c1)N1CCOCC1 (configuration not stated) | -7 |
| Cc1ccc2c(c1)N(C(=O)CCC(=O)NCc1ccccc1)CC(C)O2 (configuration not stated) | -6.7 |
| Clc1ccc2nc(-c3ccc(Br)s3)cn2c1 | -4.3 |
| CCOC(=O)c1ccc(N2C(=O)C3C(/C=C/c4ccccc4)OC4(C(=O)c5ccccc5C4=O)C3C2=O)cc1 (configuration not stated) | 7.3 |
| Cc1ccc(C(=O)COC(=O)c2cc(=O)[nH]c3ccccc23)cc1 | -5.1 |
| CCN(CCO)Cc1csc2ccc(C(C)(C)C)cc12 | 52.5 |
| CCC1CCCCN1CCCNC(=O)c1ccc(CS(=O)(=O)Cc2ccccc2F)o1 (configuration not stated) | 56.2 |
| CC(=O)Nc1ccc(NC(=O)CSc2ccc(-c3sc(C)nc3C)nn2)cc1 | -10.3 |
| N#CC(C(=O)NC1CCCCC1)=C1CCCCC1 | 62.7 |
| Clc1ccc(-c2ccn[nH]2)cc1 | -8.1 |
| Cc1cccc(N2CCN(C(=O)c3ccc(Cl)c(NC4=NC5CS(=O)(=O)CC5S4)c3)CC2C)c1 (configuration not stated) | -0.7 |
| Cc1ccc2[nH]c(=O)cc(C(=O)OCC(=O)c3ccccc3)c2c1 | 70.6 |
| CCC1=C(OC(=O)N(CC)CC)N2C(=O)OC(=NCC3CC3)[C@]2(C)[C@H]2C1=CC[C@H]1C(=O)NC(=O)[C@H]12 | -0.8 |
| N#C/C(=C(/O)c1ccc(C(=O)c2ccccc2)cc1)c1nc2ccccc2[nH]1 | -4.1 |
| CCn1cc(C(=O)NCCCN(CC(C)C)CC(C)C)c(=O)c2cc(S(=O)(=O)N(C)C3CCCCC3)ccc21 | -0.6 |
| COC(=O)C(C)n1cnc2c(nnn2-c2ccc(C)cc2)c1=O (configuration not stated) | -13 |
| Cc1ccc(C)n1-c1ccc(-c2ccn[nH]2)cc1 | 50 |
| CCC1CCCCN1CCCNC(=O)c1ccc(CS(=O)(=O)Cc2ccc(Cl)cc2)o1 (configuration not stated) | -7.2 |

====

Tgt: Tyrosine-protein phosphatase non-receptor type 22 (Homo sapiens) (UniProt Q9Y2R2)
Sequence (Q9Y2R2 whole entry, looked up): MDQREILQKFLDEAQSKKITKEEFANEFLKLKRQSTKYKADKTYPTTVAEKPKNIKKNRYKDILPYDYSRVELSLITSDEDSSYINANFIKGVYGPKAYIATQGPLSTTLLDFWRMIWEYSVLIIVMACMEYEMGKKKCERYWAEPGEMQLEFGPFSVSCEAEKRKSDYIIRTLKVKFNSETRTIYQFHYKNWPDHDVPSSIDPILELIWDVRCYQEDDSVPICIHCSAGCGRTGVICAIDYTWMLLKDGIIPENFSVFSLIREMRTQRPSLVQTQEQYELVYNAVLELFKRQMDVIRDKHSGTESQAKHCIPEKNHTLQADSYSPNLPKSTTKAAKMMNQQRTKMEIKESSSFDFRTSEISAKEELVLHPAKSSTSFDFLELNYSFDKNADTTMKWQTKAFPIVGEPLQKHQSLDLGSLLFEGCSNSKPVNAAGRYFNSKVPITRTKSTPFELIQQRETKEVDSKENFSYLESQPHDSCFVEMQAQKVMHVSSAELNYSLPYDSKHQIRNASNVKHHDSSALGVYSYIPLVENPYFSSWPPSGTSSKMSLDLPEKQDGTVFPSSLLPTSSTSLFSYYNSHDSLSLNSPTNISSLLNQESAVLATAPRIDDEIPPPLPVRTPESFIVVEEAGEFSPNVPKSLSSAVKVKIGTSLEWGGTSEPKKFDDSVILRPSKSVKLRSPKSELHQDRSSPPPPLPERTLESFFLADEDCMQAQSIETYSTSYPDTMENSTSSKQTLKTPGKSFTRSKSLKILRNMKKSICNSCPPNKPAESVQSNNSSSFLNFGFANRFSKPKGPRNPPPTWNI
Method description: PTPN22 lymphoid phosphatase activity blockers – biochemical, fluorescence intensity, uHTS (AID 1779);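 further: plate controls were vehicle with enzyme for no effect and no enzyme for full effect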
Stated conditions: recombinant LYP phosphatase, at 11.5 µM, active compounds read high
Screen size: about 290,000 compounds; about 160 (0.055%) were called active. The entries come from a sample that favours actives as a whole.

| Smiles | inhibition |
| --- | --- |
| CCN(CC)CCCNC(=O)Cn1ncn2cccc2c1=O | -3.9% (inactive) |
| COc1ccc(S(=O)(=O)Nc2nccs2)cc1OC | -10.2% (inactive) |
| CSc1nsc(SCC(=O)Nc2cccc(C(=O)O)c2)n1 | -1.3% (inactive) |
| Cc1ccc(NC(=O)COC(=O)c2cc(-c3cccs3)nn2-c2ccccc2)cc1[N+](=O)[O-] | 74.9% (active) |
| COc1cc(/C=N/NC(=O)c2ccc(O)cc2)ccc1OCC(=O)Nc1cccc([N+](=O)[O-])c1 | -5.1% (inactive) |
| CSc1nsc(SCC(=O)Nc2cccc(NC(C)=O)c2)n1 | -3.8% (inactive) |
| COc1ccc(OCC(=O)N/N=C/c2ccc(OC)c(OC)c2C(=O)O)cc1 | 53.1% (active) |
| CSc1nsc(SCC(=O)Nc2cccc(C(C)=O)c2)n1 | 52.6% (active) |
| O=C(COc1ccc(/C=N/NC(=O)c2ccncc2)cc1)Nc1cccc([N+](=O)[O-])c1 | -3.3% (inactive) |
| O=C(COC(=O)c1cc(-c2cccs2)nn1-c1ccccc1)Nc1ccc(Cl)c([N+](=O)[O-])c1 | 2% (inactive) |
